Where do the numbers come from? From PubChem BioAssay (NCI).

# growth inhibition per entry
# test.details: NCI Yeast Anticancer Drug Screen. Data for the sgs1 mgt1 strain (AID 161);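 also: 0% = growth of cultures given vehicle only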
# run.parameters: S. cerevisiae sgs1 mgt1 strain, at 50.0 µM, hits give high values
Compounds without any hit were thinned out: in the full panel of roughly 79,000, 15% have a hit.
Enter your answer as a number in %; do not include the unit.

Example compounds with recorded growth inhibition:
compound	growth inhibition [%]
Cc1cccc2c(N=[N+]=[N-])cc(C(F)(F)F)nc12	-0.6
Cn1c2c(c3ccccc31)CCN(CCCCN1CCc3c(n(C)c4ccccc34)C1=O)C2	-19.3
CN(C)N=Nc1ccc(Cl)cc1C(=O)O	20.7

Entry under review: CCSCC(C)C(=O)OC (stereo not given) . Reported growth inhibition?
-14.3

Entry under review: `O=C(Nc1ccc(Cl)cc1)NS(=O)(=O)c1coc2ccccc2c1=O` . Reported growth inhibition?
-5.75

Entry under review: O=C(CCC(=O)OCC1CCCO1)OCC1CCCO1 (stereo not given) . Reported growth inhibition?
4.7

Entry under review: `O=C(CCCl)Nc1cccc(CCC(=O)c2ccccc2NC(=O)CCCl)c1` . Reported growth inhibition?
-4.2

Entry under review: N#Cc1cc([N+](=O)[O-])ccc1NC(=O)C(=O)C(C(=O)c1ccc2ccccc2c1)C1OCc2ccccc21 (stereo not given) . Reported growth inhibition?
-2.85

Entry under review: O=C(O)C(CBr)c1ccccc1 (stereo not given) . Reported growth inhibition?
-0.55

Entry under review: CCN(CC)c1c(C)nnn1C1OC(COC(C)=O)C(OC(C)=O)C(OC(C)=O)C1OC(C)=O (stereo not given) . Reported growth inhibition?
-19.9

Entry under review: `Cc1cccc(Cl)c1NC(=O)C(Cl)Cl` . Reported growth inhibition?
8

Entry under review: `CCc1ccc(C(=O)O)o1` . Reported growth inhibition?
-7.35

Entry under review: `COc1ccccc1C(=O)N/N=C/c1ccncc1` . Reported growth inhibition?
5.7

Entry under review: CC(=O)O[C@@H]1[C@@H](C)[C@]2(CC(c3ccoc3)OC2O)C2CCC3O[C@]3(C)[C@]2(C)[C@@H]1OC(C)=O (stereo not given in full) . Reported growth inhibition?
-42.6
